Source of measurements: patent US9637483B2

inhibition at 1 µM for assorted molecules
# TEST_TARGET: JAK1 (Homo sapiens)
# Construct: purchased Invitrogen
# Sequence (P23458 whole entry): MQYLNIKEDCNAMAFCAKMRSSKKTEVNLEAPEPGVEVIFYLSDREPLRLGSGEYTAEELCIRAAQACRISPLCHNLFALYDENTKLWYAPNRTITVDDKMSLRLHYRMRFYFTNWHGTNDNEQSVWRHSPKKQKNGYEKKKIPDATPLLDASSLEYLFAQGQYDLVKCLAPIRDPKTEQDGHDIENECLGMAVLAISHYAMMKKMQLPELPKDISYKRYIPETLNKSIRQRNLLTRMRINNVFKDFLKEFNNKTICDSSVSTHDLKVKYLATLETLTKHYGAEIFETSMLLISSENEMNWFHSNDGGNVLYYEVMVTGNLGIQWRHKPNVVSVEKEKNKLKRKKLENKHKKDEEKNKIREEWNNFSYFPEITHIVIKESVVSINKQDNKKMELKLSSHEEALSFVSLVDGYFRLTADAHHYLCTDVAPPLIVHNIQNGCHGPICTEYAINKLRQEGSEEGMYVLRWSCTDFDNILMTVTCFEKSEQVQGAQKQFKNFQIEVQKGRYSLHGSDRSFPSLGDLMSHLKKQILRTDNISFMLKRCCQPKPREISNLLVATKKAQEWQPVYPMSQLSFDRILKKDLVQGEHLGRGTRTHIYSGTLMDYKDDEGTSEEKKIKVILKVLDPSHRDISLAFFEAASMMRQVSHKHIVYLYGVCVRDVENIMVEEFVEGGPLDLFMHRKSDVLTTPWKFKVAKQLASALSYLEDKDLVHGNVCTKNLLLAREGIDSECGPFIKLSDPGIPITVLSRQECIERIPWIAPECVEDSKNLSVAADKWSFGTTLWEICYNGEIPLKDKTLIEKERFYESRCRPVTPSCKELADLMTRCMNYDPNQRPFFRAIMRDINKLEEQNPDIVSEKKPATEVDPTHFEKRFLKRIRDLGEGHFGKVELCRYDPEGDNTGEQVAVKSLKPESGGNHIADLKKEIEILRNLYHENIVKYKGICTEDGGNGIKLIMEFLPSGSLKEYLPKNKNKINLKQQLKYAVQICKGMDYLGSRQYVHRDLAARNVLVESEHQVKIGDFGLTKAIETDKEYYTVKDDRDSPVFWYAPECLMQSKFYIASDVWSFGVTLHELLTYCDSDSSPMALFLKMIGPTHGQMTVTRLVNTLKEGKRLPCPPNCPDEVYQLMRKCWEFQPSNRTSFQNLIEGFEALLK
# EXPERIMENTAL_PROTOCOL: JAK1 enzyme inhibition test (LANCE method)
# Type: biochemical
# ASSAY_CONDITIONS: 1 μM test compound; read-out: JAK1 enzyme inhibitory activity (%, 1 μM)
# Protocol: JAK1 enzyme inhibitory activity of test compounds was measured by the LANCE method (PerkinElmer). First, a test compound diluted with assay buffer (50 mM HEPES (pH 7.5), 10 mM MgCl2, 1 mM EGTA, 2 mM DTT, 0.01% Tween20, 0.01% BSA) was added to a 384-well plate by 2 μL each. Then, a JAK1 (Invitrogen) solution and a fluorescence-labeled peptide substrate (ULight-JAK1, PerkinElmer) solution diluted with assay buffer to 187.5 ng/mL and 300 nM, respectively, were added by 2 μL each. […]
REPORTED_PROPERTY: inhibition at 1 µM (%)

- MOLECULE: "CN1CCN(c2cc(-c3cn(C(C4CC4)C4CC4)c(=O)c4c(N)n[nH]c34)nn2C)CC1 [Example 149]"
  TEST_TARGET: "JAK1 (Homo sapiens)"
  MEASURE_UNIT: "%"
  TEST_VALUE: 100
- MOLECULE: "CC(C)[C@H](C)n1cc(-c2cc(CN3CCS(=O)(=O)CC3)n(C)n2)c2[nH]nc(N)c2c1=O [Example 47]"
  TEST_TARGET: "JAK1 (Homo sapiens)"
  MEASURE_UNIT: "%"
  TEST_VALUE: 93
- MOLECULE: "COC1(c2cc(-c3cn([C@@H](C)C(C)C)c(=O)c4c(N)n[nH]c34)nn2C)CCS(=O)(=O)CC1 [Example 110]"
  TEST_TARGET: "JAK1 (Homo sapiens)"
  MEASURE_UNIT: "%"
  TEST_VALUE: 89
- MOLECULE: "COC1(c2cc(-c3cn(-c4c(F)cccc4F)c(=O)c4c(N)n[nH]c34)nn2C)CN(C(=O)C(C)C)C1 [Example 130]"
  TEST_TARGET: "JAK1 (Homo sapiens)"
  MEASURE_UNIT: "%"
  TEST_VALUE: 96
- MOLECULE: "Cn1nc(-c2cn(-c3c(F)cccc3C#N)c(=O)c3c(N)n[nH]c23)cc1N1CCOCC1 [Example 67]"
  TEST_TARGET: "JAK1 (Homo sapiens)"
  MEASURE_UNIT: "%"
  TEST_VALUE: 98
- MOLECULE: "Cn1nc(-c2cn(C(C3CC3)C3CC3)c(=O)c3c(N)n[nH]c23)cc1N1CCN2CCC[C@@H]2C1 [Example 163]"
  TEST_TARGET: "JAK1 (Homo sapiens)"
  MEASURE_UNIT: "%"
  TEST_VALUE: 100
- MOLECULE: "COCCn1nc(-c2cn([C@@H](C)C(C)C)c(=O)c3c(N)n[nH]c23)cc1C(C)(C)O [Example 36]"
  TEST_TARGET: "JAK1 (Homo sapiens)"
  MEASURE_UNIT: "%"
  TEST_VALUE: 55
- MOLECULE: "CC(C)[C@H](C)n1cc(-c2cc(N3CCC(F)(F)CC3)n(C)n2)c2[nH]nc(N)c2c1=O [Example 16]"
  TEST_TARGET: "JAK1 (Homo sapiens)"
  MEASURE_UNIT: "%"
  TEST_VALUE: 97
- MOLECULE: "CC(C)[C@H](C)n1cc(-c2cc(N3CCC[C@H]3CO)n(C)n2)c2[nH]nc(N)c2c1=O [Example 20]"
  TEST_TARGET: "JAK1 (Homo sapiens)"
  MEASURE_UNIT: "%"
  TEST_VALUE: 95
- MOLECULE: "CC(C)[C@H](C)n1cc(-c2cc(C3CC3)n(C)n2)c2[nH]nc(N)c2c1=O [Example 43]"
  TEST_TARGET: "JAK1 (Homo sapiens)"
  MEASURE_UNIT: "%"
  TEST_VALUE: 97
- MOLECULE: "C[C@H](C1CC1)n1cc(-c2cc(N3CCC(C)(O)CC3)n(C)n2)c2[nH]nc(N)c2c1=O [Example 133]"
  TEST_TARGET: "JAK1 (Homo sapiens)"
  MEASURE_UNIT: "%"
  TEST_VALUE: 91
- MOLECULE: "CC1CN(c2cc(-c3cn([C@@H](C)C(C)C)c(=O)c4c(N)n[nH]c34)nn2C)CCO1 (stereo partly drawn) [Example 31]"
  TEST_TARGET: "JAK1 (Homo sapiens)"
  MEASURE_UNIT: "%"
  TEST_VALUE: 97
- MOLECULE: "CC(C)[C@H](C)n1cc(-c2cc(C3(O)CCC3)n(C)n2)c2[nH]nc(N)c2c1=O [Example 38]"
  TEST_TARGET: "JAK1 (Homo sapiens)"
  MEASURE_UNIT: "%"
  TEST_VALUE: 99
- MOLECULE: "CC(C)[C@H](C)n1cc(-c2cc(N3CCOCC3=O)n(C)n2)c2[nH]nc(N)c2c1=O [Example 49]"
  TEST_TARGET: "JAK1 (Homo sapiens)"
  MEASURE_UNIT: "%"
  TEST_VALUE: 96
- MOLECULE: "COC(C)(C)c1cc(-c2cn(-c3c(F)cccc3C#N)c(=O)c3c(N)n[nH]c23)nn1C [Example 121]"
  TEST_TARGET: "JAK1 (Homo sapiens)"
  MEASURE_UNIT: "%"
  TEST_VALUE: 98
- MOLECULE: "CC(C)[C@H](C)n1cc(-c2cc(N3CCN(S(C)(=O)=O)CC3)n(C)n2)c2[nH]nc(N)c2c1=O [Example 108]"
  TEST_TARGET: "JAK1 (Homo sapiens)"
  MEASURE_UNIT: "%"
  TEST_VALUE: 98
- MOLECULE: "CC(C)[C@H](C)n1cc(-c2cc(N3CCCC3=O)n(C)n2)c2[nH]nc(N)c2c1=O [Example 55]"
  TEST_TARGET: "JAK1 (Homo sapiens)"
  MEASURE_UNIT: "%"
  TEST_VALUE: 98
- MOLECULE: "Cn1nc(-c2cn(C(C3CC3)C3CC3)c(=O)c3c(N)n[nH]c23)cc1N1CCC(F)(F)C1 [Example 170]"
  TEST_TARGET: "JAK1 (Homo sapiens)"
  MEASURE_UNIT: "%"
  TEST_VALUE: 99
- MOLECULE: "CC(C)[C@H](C)n1cc(-c2cc(N3CCC4(CC3)COC4)n(C)n2)c2[nH]nc(N)c2c1=O [Example 34]"
  TEST_TARGET: "JAK1 (Homo sapiens)"
  MEASURE_UNIT: "%"
  TEST_VALUE: 97
- MOLECULE: "CN(C)C[C@H]1CCCN1c1cc(-c2cn(-c3c(F)cccc3F)c(=O)c3c(N)n[nH]c23)nn1C [Example 126]"
  TEST_TARGET: "JAK1 (Homo sapiens)"
  MEASURE_UNIT: "%"
  TEST_VALUE: 92
- MOLECULE: "CC(C)[C@H](C)n1cc(-c2cc(N3CCOC3=O)n(C)n2)c2[nH]nc(N)c2c1=O [Example 54]"
  TEST_TARGET: "JAK1 (Homo sapiens)"
  MEASURE_UNIT: "%"
  TEST_VALUE: 98
- MOLECULE: "Cn1nc(-c2cn(C(C3CC3)C3CC3)c(=O)c3c(N)n[nH]c23)cc1C1CCCCC1 [Example 148]"
  TEST_TARGET: "JAK1 (Homo sapiens)"
  MEASURE_UNIT: "%"
  TEST_VALUE: 101
- MOLECULE: "COC1(c2cc(-c3cn([C@@H](C)C4CC4)c(=O)c4c(N)n[nH]c34)nn2C)CN(S(=O)(=O)C(C)C)C1 [Example 98]"
  TEST_TARGET: "JAK1 (Homo sapiens)"
  MEASURE_UNIT: "%"
  TEST_VALUE: 97
- MOLECULE: "CC(C)[C@H](C)n1cc(-c2cc(N3CCCCC3=O)n(C)n2)c2[nH]nc(N)c2c1=O [Example 48]"
  TEST_TARGET: "JAK1 (Homo sapiens)"
  MEASURE_UNIT: "%"
  TEST_VALUE: 94
- MOLECULE: "CC(C)[C@H](C)n1cc(-c2cc(C(=O)N(C)C3CCCC3)n(C)n2)c2[nH]nc(N)c2c1=O [Example 50]"
  TEST_TARGET: "JAK1 (Homo sapiens)"
  MEASURE_UNIT: "%"
  TEST_VALUE: 96
- MOLECULE: "Cn1nc(-c2cn(C(C3CC3)C3CC3)c(=O)c3c(N)n[nH]c23)cc1C(F)(F)F [Example 165]"
  TEST_TARGET: "JAK1 (Homo sapiens)"
  MEASURE_UNIT: "%"
  TEST_VALUE: 100
- MOLECULE: "CC(C)[C@H](C)n1cc(-c2cc(N3CCC(F)(F)C3)n(C)n2)c2[nH]nc(N)c2c1=O [Example 106]"
  TEST_TARGET: "JAK1 (Homo sapiens)"
  MEASURE_UNIT: "%"
  TEST_VALUE: 97
- MOLECULE: "CC(C)[C@H](C)n1cc(-c2cc(CN3CCCC3)n(C)n2)c2[nH]nc(N)c2c1=O [Example 44]"
  TEST_TARGET: "JAK1 (Homo sapiens)"
  MEASURE_UNIT: "%"
  TEST_VALUE: 90
- MOLECULE: "CC(n1cc(-c2cc(N3CCOCC3)n(C)n2)c2[nH]nc(N)c2c1=O)C1(C)CC1 (stereo not drawn) [Example 81]"
  TEST_TARGET: "JAK1 (Homo sapiens)"
  MEASURE_UNIT: "%"
  TEST_VALUE: 99
- MOLECULE: "CC(C)[C@H](C)n1cc(-c2cc(C3CCOCC3)n(C)n2)c2[nH]nc(N)c2c1=O [Example 58]"
  TEST_TARGET: "JAK1 (Homo sapiens)"
  MEASURE_UNIT: "%"
  TEST_VALUE: 97
